# System: H9
# Assay Overview: Inhibition of uninfected H9 lymphocytic cell growth
# Type: functional, cell-based
# Measurement Parameters: Homo sapiens
// returns False unless IC50 is strictly below 40 µg/mL, in which case True

A selection of reference data follows.
Molecule	System Under Test	Qualitative Label
O=C1O[C@H]([C@@H](O)CO)C2(O)Oc3cc(O)c4c(c3C12O)O[C@H](c1cc(O)c(O)c(O)c1)[C@H](O)C4 (some centres undefined)	H9	True
Oc1cc(O)c2c(c1)O[C@H](c1cc(O)c(O)c(O)c1)[C@@H](O)[C@@H]2c1c(O)cc(O)c2c1O[C@H](c1cc(O)c(O)c(O)c1)[C@H](O)C2	H9	True
O=C(O[C@@H]1Cc2c(cc(O)c(Cc3c(O)cc4c(c3O)C[C@@H](OC(=O)c3cc(O)c(O)c(O)c3)[C@@H](c3cc(O)c(O)c(O)c3)O4)c2O)O[C@@H]1c1cc(O)c(O)c(O)c1)c1cc(O)c(O)c(O)c1	H9	True
O=C(O[C@@H]1Cc2c(O)cc(O)cc2O[C@@H]1c1cc(O)c(O)c2c1C1C([C@H]3Oc4cc(O)cc(O)c4C[C@H]3O)=CC(=O)C1(O)O2)c1cc(O)c(O)c(O)c1 (some centres undefined)	H9	False
O=C(O[C@@H]1[C@@H](c2c(O)cc3c(c2O)C[C@@H](OC(=O)c2cc(O)c(O)c(O)c2)[C@@H](c2cc(O)c(O)c(O)c2)O3)c2c(O)cc(O)cc2O[C@@H]1c1cc(O)c(O)c(O)c1)c1cc(O)c(O)c(O)c1	H9	True
O=C(O[C@@H]1Cc2c(O)cc(O)cc2O[C@@H]1c1ccc(O)cc1)c1cc(O)c(O)c(O)c1	H9	False

Exercise: Threshold test, IC50 < 40 µg/mL: `O=C(O[C@@H]1Cc2c(O)cc(O)cc2O[C@@H]1c1cc(O)c(O)cc1-c1c([C@H]2Oc3cc(O)cc(O)c3C[C@H]2OC(=O)c2cc(O)c(O)c(O)c2)cc(O)c(O)c1O)c1cc(O)c(O)c(O)c1`
Key: False

Exercise: Consider `O=C(O[C@@H]1Cc2c(O)cc(O)cc2O[C@@H]1c1cc(O)c(=O)c2c(O)c(O)c(O)cc2c1)c1cc(O)c(O)c(O)c1` . Does its IC50 lie strictly below 40 µg/mL?
Key: True

Exercise: Given the entry `O=C(O[C@@H]1Cc2c(O)cc(O)c(Cc3c(O)cc(O)c4c3O[C@H](c3cc(O)c(O)c(O)c3)[C@H](OC(=O)c3cc(O)c(O)c(O)c3)C4)c2O[C@@H]1c1cc(O)c(O)c(O)c1)c1cc(O)c(O)c(O)c1` , would its reported IC50 be below 40 µg/mL?
Key: False

Exercise: Input `O=C(O[C@@H]1Cc2c(O)cc(O)cc2O[C@@H]1c1cc(O)c(O)c(O)c1-c1c([C@H]2Oc3cc(O)cc(O)c3C[C@H]2OC(=O)c2cc(O)c(O)c(O)c2)cc(O)c(O)c1O)c1cc(O)c(O)c(O)c1` ; condition: IC50 strictly below 40 µg/mL. Does it hold?
Key: True

Exercise: IC50 under 40 µg/mL? Item: O=C(O[C@@H]1Cc2c(O)cc(O)cc2O[C@@H]1c1cc(O)c(O)c(O)c1)c1cc(O)c(O)c(O)c1 [EPIGALOCATECHIN GALLATE]
Key: True
